Tested on: Enterococcus sp.
Assay: In vitro antibacterial evaluation: minimum inhibitory concentration (MIC), broth dilution method
Format: cell-based
Conditions: Enterococcus faecalis (GC 4552); broth dilution, 18 hours at 35° C.
Exercise: for every item that follows, state its recorded MIC Enterococcus faecalis (GC 4552).
Answer with a number only, understood to be in µg/mL.

Asked: Sample CC(c1ccccc1)C1NC(=O)CNC(=O)C(CO)NC(=O)C(C(O)C2CNC(=N)N2C2OC(CO)C(O)C(O)C2O)NC(=O)C(C(O)C2CNC(=N)N2)NC(=O)C(Cc2ccc3oc(SCC(=O)c4ccc(Cl)cc4)nc3c2)NC1=O (centres unmarked) [Example 49] — what was its MIC Enterococcus faecalis (GC 4552)?
Given back: 2

Asked: Sample CC(c1ccccc1)C1NC(=O)CNC(=O)C(CO)NC(=O)C(C(O)C2CNC(=N)N2C2OC(CO)C(O)C(O)C2O)NC(=O)C(C(O)C2CNC(=N)N2)NC(=O)C(Cc2ccc(OC3OC(CO)C(OC4OC5COC(c6cccc(-c7ccccc7)c6)OC5C(O)C4O)C(O)C3O)cc2)NC1=O (centres unmarked) [Example 154] — what was its MIC Enterococcus faecalis (GC 4552)?
Given back: 2

Asked: Sample CC(c1ccccc1)C1NC(=O)CNC(=O)C(CO)NC(=O)C(C(O)C2CNC(=N)N2C2OC(CO)C(O)C(O)C2O)NC(=O)C(C(O)C2CNC(=N)N2)NC(=O)C(Cc2ccc3oc(-c4cccc(F)c4)nc3c2)NC1=O (centres unmarked) [Example 30] — what was its MIC Enterococcus faecalis (GC 4552)?
Given back: 64

Asked: Sample COc1ccc(Oc2cccc(-c3nc4cc(CC5NC(=O)C(C(C)c6ccccc6)NC(=O)CNC(=O)C(CO)NC(=O)C(C(O)C6CNC(=N)N6C6OC(CO)C(O)C(O)C6O)NC(=O)C(C(O)C6CNC(=N)N6)NC5=O)ccc4o3)c2)cc1 (centres unmarked) [Example 35] — what was its MIC Enterococcus faecalis (GC 4552)?
Given back: 32

Asked: Sample CC(c1ccccc1)C1NC(=O)CNC(=O)C(CO)NC(=O)C(C(O)C2CNC(=N)N2C2OC(CO)C(O)C(O)C2O)NC(=O)C(C(O)C2CNC(=N)N2)NC(=O)C(Cc2ccc3oc(-c4ccc(Br)cc4)nc3c2)NC1=O (centres unmarked) [Example 27] — what was its MIC Enterococcus faecalis (GC 4552)?
Given back: 64

---

System: Staphylococcus sp.
Assay: In vitro antibacterial evaluation: minimum inhibitory concentration (MIC), broth dilution method
Format: cell-based
Conditions: broth dilution, 18 hours at 35° C.
quantity kind: MIC Coagulase Negative Staphylococcus (GC 4547) (µg/mL)
Answer with a number only, understood to be in µg/mL.

Asked: Sample CC(C)=CCCC(C)=CCN=C1NCC(C(O)C2NC(=O)C(C(O)C3CNC(=N)N3)NC(=O)C(Cc3ccc(OC4OC(CO)C(OC5OC6COC7(OC6C(O)C5O)C5CC6CC(C5)CC7C6)C(O)C4O)cc3)NC(=O)C(C(C)c3ccccc3)NC(=O)CNC(=O)C(CO)NC2=O)N1C1OC(CO)C(O)C(O)C1O (stereo not drawn) — what was its MIC Coagulase Negative Staphylococcus (GC 4547)?
Given back: 4

Asked: Sample CC(c1ccccc1)C1NC(=O)CNC(=O)C(CO)NC(=O)C(C(O)C2CNC(=N)N2C2OC(CO)C(O)C(O)C2O)NC(=O)C(C(O)C2CNC(=N)N2)NC(=O)C(Cc2ccc3oc(SCc4ccc(-c5ccccc5)cc4)nc3c2)NC1=O (stereo not drawn) — what was its MIC Coagulase Negative Staphylococcus (GC 4547)?
Given back: 16

Values compiled from patent US8247211B2.
